- targetOfAssay: VIM-1 (Pseudomonas aeruginosa)
- assaySummary: Enzyme activity: determination of IC50, fluorescence assay with CCF2-FA substrate
- Format: biochemical
- conditionContext: VIM-1 enzyme 30 pM, CCF2-FA 1.25 μM, 2 hours at 25° C.; read-out: VIM1 IC50
experimentalReadout: pIC50
Give bare numbers, as −log10 of the molar value.

INSERT INTO results (compound, targetofassay, datavalue) VALUES
  ('CCC[C@H](C(=O)O)[C@H](Cc1ccc(C(=O)O)cc1)c1nn[nH]n1', 'VIM-1 (Pseudomonas aeruginosa)', 7.77);

For every item in the list below, what is its measured pIC50?
1. CCC[C@H](C(=O)O)[C@H](Cc1ccccc1-c1cccnc1)c1nn[nH]n1
2. CCC[C@H](C(=O)O)[C@H](Cc1cccc(-c2ccncc2)c1)c1nn[nH]n1
3. CCC[C@H](C(=O)O)[C@H](Cc1ccc(C2CCNC2)cc1)c1nnn[nH]1 (stereo partly drawn)
4. CC(C)(C)[C@H](C(=O)O)[C@@H](Cc1cccc2sc(Br)nc12)c1nnn[nH]1
5. CCC[C@H](C(=O)O)[C@H](Cc1cccc(N2CCNC(=O)C2)c1)c1nn[nH]n1
6. CCC[C@H](C(=O)O)[C@H](Cc1ccc(C[C@@H]2CCCOC2)cc1)c1nn[nH]n1

Result:
[7.74, 8.64, 8.34, 9.00, 6.59, 7.85]

The origin of these recorded values is patent US9839642B2.
